Here the recorded fluorescence lifetime is given for each entry.
# TEST SUMMARY: solvent given as SMILES
# MEASUREMENT SETUP: in CO
// note: answer is a bare numeric in ns

Some solved entries appear below for comparison.
COMPOUND | ASSAY ENDPOINT | VALUE REPORTED
COc1c2ccccc2c(OC)c2c1c1ccc(C)cc1n2C | fluorescence lifetime | 22.9
O=c1[nH]c(=O)n([C@@H]2O[C@H](CO)[C@@H](O)[C@H]2O)cc1-c1cc2ccccc2s1 | fluorescence lifetime | 0.6
CN(C)c1ccc(C(=O)c2ccccc2)cc1 | fluorescence lifetime | 0.0052
CC(C)(C)c1ccc2c(c1)c1cc(C(C)(C)C)ccc1n2-c1ccc(C#Cc2ccccc2)cc1 | fluorescence lifetime | 4.99
c1ccc(-c2cc(-c3ccc4ccc5c(-c6ccnc(-c7ccccn7)c6)ccc6ccc3c4c65)ccn2)nc1 | fluorescence lifetime | 1.7

# compound `Cc1ccc(C2=C3C=CC(C#Cc4ccccc4)=[N+]3[B-](F)(F)n3c(C#Cc4ccccc4)ccc32)cc1` ; its fluorescence lifetime = 6.51

# compound `Cc1ccc(C2=C3C=C(I)C=[N+]3[B-](F)(F)n3cc(I)cc32)cc1` ; its fluorescence lifetime = 0.057

# compound `COc1cc(N(c2ccccc2)c2ccccc2)ccc1C=C(C#N)C#N` ; its fluorescence lifetime = 0.02

# compound `COc1ccc(-c2cc(-c3ccc(OC)cc3)c3c(N)nc(N4CCCC4)c(C#N)c3n2)cc1` ; its fluorescence lifetime = 10.3

# compound `CCCCCCN(CCCCCC)c1ccc(C#Cc2ccc(C#N)cc2)cc1` ; its fluorescence lifetime = 1

# compound `CCN(CC)c1ccc(-c2nc3c(c4c2-c2ccccc2CC4)-c2ccccc2CC3)cc1` ; its fluorescence lifetime = 0.68

# compound `Cc1ccc2ccc3c(C)ccc4ccc1c2c43` ; its fluorescence lifetime = 64.5

# compound `N#CC(C#N)=C(/C=C/c1ccc(N(c2ccccc2)c2ccccc2)cc1)c1ccc2c3c(cccc13)CC2` ; its fluorescence lifetime = 2.1

# compound `NCc1ccc2ccc3cccc4ccc1c2c34` ; its fluorescence lifetime = 119

# compound `Cc1ccc(NC(=O)c2sc(Br)nc2C)cc1` ; its fluorescence lifetime = 0.22

# compound `CN(C)c1ccc(/C=C/C=C2\CC/C(=C\c3ccc(N(C)C)cc3)C2=O)cc1` ; its fluorescence lifetime = 0.3
